system name: T1, Mouse PD-1 extracellular domain, hFc tag (mouse, UniProt Q02242 25-169)
T1 construct: extracellular domain; also called mPro1.ECD.hFc; not shown: human Fc tag at C-terminus
T1 sequence (looked up): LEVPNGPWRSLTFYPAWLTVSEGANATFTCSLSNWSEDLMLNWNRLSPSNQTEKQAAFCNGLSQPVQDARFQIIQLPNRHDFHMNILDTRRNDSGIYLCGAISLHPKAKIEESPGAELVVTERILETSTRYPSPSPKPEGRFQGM
assay comment: SPR Biacore 8K; PD-1-hFc captured on anti-human Fc chip, VHH injected; 1:1 fit
If the reported kon equals or exceeds 300000 M⁻¹ s⁻¹, assign True. If not, assign False.

[
  {
    "binder": "AP17R1-2H2-Z1-R1-14F1 (VHH, not shown: his- and c-Myc-tag from vector pETbac) VHH: QVQLVESGGGVVQPGGSLRLSCAASDSIDSLVNMGWYRQAPGKQRELVALIAYYITHYADFVKGRFTISRDNSKNTLYLQMNSLRAEDTAVYYCYARNIIVDYWGQGTLVTVSS",
    "qualitative label": "False"
  }
]

Decide: kon of AP17R1-2H2-Z1-R1-4D8 (VHH, not shown: his- and c-Myc-tag from vector pETbac) VHH: QVQLVESGGGVVQPGGSLRLSCAASDSIQSLVNMGWYRQAPGKQRELVALIANYITHYADFVKGRFTISRDNSKNTLYLQMNSLRAEDTAVYYCYARNIIVDYWGQGTLVTVSS >= 300000 M⁻¹ s⁻¹?
False

Could you verify whether the entry AP17R1-2H2-Z1-R1-27A2 (VHH, not shown: his- and c-Myc-tag from vector pETbac) VHH: QVQLVESGGGVVQPGGSLRLSCAASDSIDSLVNMGWYRQAPGKQRELVALIANYITHYADFVKGRFTISRDNSKNTLYLQMNSLRAEDTAVYYCYARSIIVDYWGQGTLVTVSS shows kon of no less than 300000 M⁻¹ s⁻¹?
False

Say whether AP17R1-2H2-Z1-R1-29B2 (VHH, not shown: his- and c-Myc-tag from vector pETbac) VHH: QVQLVESGGGVVQPGGSLRLSCAASDSIDSLVNMGWYRQAPGKQRELVALIANYITHYADFVKGRFTISRDNSKNTLYLQMNSLRAEDTAVYYCYARNIRVDYWGQGTLVTVSS shows kon of 300000 M⁻¹ s⁻¹ or more.
False

Could you please find out whether AP17R1-2H2-Z1-R1-6E1 (VHH, not shown: his- and c-Myc-tag from vector pETbac) VHH: QVQLVESGGGVVQPGGSLRLSCAASDSIDSMVNMGWYRQAPGKQRELVALIANYITHYADFVKGRFTISRDNSKNTLYLQMNSLRAEDTAVYYCYARNIIVDYWGQGTLVTVSS has kon that meets 300000 M⁻¹ s⁻¹ or exceeds it?
False

Decide: is the reported value of kon for AP17R1-2H2-Z1-R1-14A1 (VHH, not shown: his- and c-Myc-tag from vector pETbac) VHH: QVQLVESGGGVVQPGGSLRLSCAASDSIDSLVNMGWYRQAPGKQRELVALIATYITHYADFVKGRFTISRDNSKNTLYLQMNSLRAEDTAVYYCYARNIIVDYWGQGTLVTVSS equal to or greater than 300000 M⁻¹ s⁻¹?
True
